Target: CDK4 (Homo sapiens)
Construct: endogenous in cells
Sequence (P11802 whole entry): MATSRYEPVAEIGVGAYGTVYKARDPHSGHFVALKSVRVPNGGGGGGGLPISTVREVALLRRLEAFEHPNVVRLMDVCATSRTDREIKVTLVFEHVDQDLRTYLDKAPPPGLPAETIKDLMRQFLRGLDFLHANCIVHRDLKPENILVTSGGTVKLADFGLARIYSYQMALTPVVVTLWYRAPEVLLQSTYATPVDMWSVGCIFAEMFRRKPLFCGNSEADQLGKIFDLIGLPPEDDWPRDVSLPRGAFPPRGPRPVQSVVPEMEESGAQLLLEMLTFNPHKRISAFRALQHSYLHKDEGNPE
Test: CDK4 degradation (DC50, Dmax)
Assay type: cell-based
metric_name: DC50

Q) Please look up its DC50: CC(=O)c1c(C)c2cnc(Nc3ccc(N4CCN(C5CCN(C(=O)N6CCC(N7CCN(c8ccc9c(c8)C(=O)N(C8CCC(=O)NC8=O)C9=O)CC7)CC6)CC5)CC4)cn3)nc2n(C2CCCC2)c1=O (stereo not drawn)
A) > 200 nM

Q) If you can, please state the reported DC50 value of CC(=O)c1c(C)c2cnc(Nc3ccc(N4CCN(C(=O)N5CCC(CC6CCN(c7ccc8c(c7)C(=O)N(C7CCC(=O)NC7=O)C8=O)CC6)CC5)CC4)cn3)nc2n(C2CCCC2)c1=O (stereo not drawn) .
A) 50 to 200 nM

Q) Name the reported DC50 value associated with the molecule CC(=O)c1c(C)c2cnc(Nc3ccc(N4CCN(C(=O)CNc5ccc6c(c5)C(=O)N(C5CCC(=O)NC5=O)C6=O)CC4)cn3)nc2n(C2CCCC2)c1=O (stereo not drawn)
A) 50 to 200 nM

Q) Which DC50 value belongs to Cc1nc2c(F)cc(-c3nc(Nc4ccc(CN5CCN(C6CCN(c7ccc8c(c7)C(=O)N(C7CCC(=O)NC7=O)C8=O)CC6)CC5)cn4)ncc3F)cc2n1C(C)C (stereo not drawn) ?
A) 50 to 200 nM

Q) Entry CC(=O)c1c(C)c2cnc(Nc3ccc(C4CCN(C(=O)C5CN(c6ccc(NC7CCC(=O)NC7=O)cc6)C5)CC4)cn3)nc2n(C2CCCC2)c1=O (stereo not drawn) has what DC50?
A) 50 to 200 nM

Q) Query (molecule): CC(=O)c1c(C)c2cnc(Nc3ccc(N4CCN(C(=O)N5CCC(N6CCN(c7ccc8c(c7)C(=O)N(C7CCC(=O)NC7=O)C8=O)CC6)CC5)CC4)cn3)nc2n(C2CCCC2)c1=O (stereo not drawn) ; field requested: DC50
A) > 200 nM

Q) Find the recorded DC50 belonging to Cc1nc2c(F)cc(-c3nc(Nc4ccc(CN5CCN(C6CN(c7ccc(C(=O)NC8CCC(=O)NC8=O)cc7)C6)CC5)cn4)ncc3F)cc2n1C(C)C (stereo not drawn) and report it.
A) < 50 nM

Q) What value of DC50 has been reported for the following molecule? CC(=O)c1c(C)c2cnc(Nc3ccc(N4CCN(C(=O)C5CN(c6ccc7c(c6)C(=O)N(C6CCC(=O)NC6=O)C7=O)C5)CC4)cn3)nc2n(C2CCCC2)c1=O (stereo not drawn)
A) < 50 nM

Q) Give its DC50 value. Item: Cc1nc2c(F)cc(-c3nc(Nc4ccc(CN5CCN(C6CCN(c7ccc(C(=O)NC8CCC(=O)NC8=O)cc7)CC6)CC5)cn4)ncc3F)cc2n1C(C)C (stereo not drawn) [Compound 150]
A) < 50 nM
